Where do the numbers come from? From patent US20200262868A1.

system: T1, human NK2 Receptor (human, UniProt P21452 1-398)
T1 sequence (looked up): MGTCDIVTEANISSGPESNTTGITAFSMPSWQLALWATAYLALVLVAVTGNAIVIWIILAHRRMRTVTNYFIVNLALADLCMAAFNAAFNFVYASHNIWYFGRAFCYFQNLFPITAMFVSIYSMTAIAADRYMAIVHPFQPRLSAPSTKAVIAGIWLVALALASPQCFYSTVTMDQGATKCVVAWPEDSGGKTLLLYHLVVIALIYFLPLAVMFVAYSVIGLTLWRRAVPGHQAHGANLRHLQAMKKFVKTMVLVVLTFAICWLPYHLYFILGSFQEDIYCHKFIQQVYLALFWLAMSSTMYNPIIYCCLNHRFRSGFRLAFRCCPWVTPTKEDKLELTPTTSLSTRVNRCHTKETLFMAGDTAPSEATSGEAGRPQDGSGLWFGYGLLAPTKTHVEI
experiment_notes: cell-based or functional assay
Where no end group is shown, it is not given here.
value_kind: hNK2 EC50 (intracellular calcium mobilization, FLIPR, CHO-hNK2 cells) (nM)
Note: unit nM is implicit; provide only the numeric part.

DRFVGLM-NH2 (synthetic heptapeptide analog of neurokinin A, Fmoc solid-phase synthesis; also called Compound H; Cmpd H) [Heptapeptide analog H, Asp-Arg-Phe-Val-Gly-Leu-Met-NH2]; 0.19

Now, please, on to the next binder.
Problem: Looking for the measured hNK2 EC50 (intracellular calcium mobilization, FLIPR, CHO-hNK2 cells) of DKFVALX (HELM PEPTIDE1{D.K.F.V.[bAla].L.[Nle].[am]}$$$$V2.0; N-terminus assumed; SMILES CCCC[C@H](NC(=O)[C@H](CC(C)C)NC(=O)CCNC(=O)[C@@H](NC(=O)[C@H](Cc1ccccc1)NC(=O)[C@H](CCCCN)NC(=O)[C@@H](N)CC(=O)O)C(C)C)C(N)=O, synthetic heptapeptide analog of neurokinin A, Fmoc solid-phase synthesis; also called Compound G; Cmpd G) [Heptapeptide analog G, Asp-Lys-Phe-Val-(β-Ala)-Leu-Nle-NH2] , can you help?
Result: 3
